# assay.explanation: method code SF, from Hansch, C. & Leo, A. (1987). Log P database [Dataset]. Pomona College Medicinal Chemistry Project.
experimental.endpoint: logP
Reply with just the number.

{"molecule": "CCCCCC1(CC)C(=O)NC(=O)NC1=O", "observed": 2.24}
{"molecule": "COc1cccc(C)c1", "observed": 2.66}
{"molecule": "c1ccc(COc2ccccc2)cc1", "observed": 3.79}
{"molecule": "COc1ccc2c(c1)N=C(C)NS2(=O)=O", "observed": 0.56}
{"molecule": "CNC(=O)ON=CC(C)(C)[N+](=O)[O-]", "observed": 0.36}

Let us move to another entry and its logP.
molecule CC(C)Oc1ccccc1OC(=O)N(C)C , logP observed: 2.06

###

Some molecules, each annotated with its measured logP.
# assay.explanation: method code SF, from Hansch, C. & Leo, A. (1987). Log P database [Dataset]. Pomona College Medicinal Chemistry Project.
Reply with just the number.

Consider the following illustrative entries.
{"molecule": "O=S(=O)(Oc1ccccc1)c1ccccc1", "logP": 3.06}
{"molecule": "CCSC(=Cc1ccccc1)C(=O)NC(C)CC (stereo unspecified)", "logP": 3.4}
{"molecule": "CCc1ccccc1NC(C)=O", "logP": 1.33}
{"molecule": "CCOP(=S)(OCC)SCn1nnc2ccccc2c1=O", "logP": 3.4}
{"molecule": "COC(=O)CNC(=O)c1ccc(N)cc1", "logP": -0.23}

molecule COc1cc(O)cc(OC)c1 , logP observed: 1.64

molecule COP(=O)(NC(C)(C)C)Oc1cc(Cl)c(Cl)cc1Cl (stereo unspecified) , logP observed: 3.83

molecule CC(C)c1ccccc1OC(=O)N(C)C , logP observed: 2.65

###

# assay.explanation: method code SF, from Hansch, C. & Leo, A. (1987). Log P database [Dataset]. Pomona College Medicinal Chemistry Project.
experimental.endpoint: logP

Consider the following illustrative entries.
{"substance.smiles": "COP(=O)(OC)OC", "logP": -0.52}
{"substance.smiles": "CC(C)=NO", "logP": 0.12}

compound CN(C(=O)CCI)c1ccc(S(=O)(=O)N(C)C)cc1 , logP observed: 1.39

###

Some compounds, each annotated with its measured logP.
# assay.explanation: method code SF, from Hansch, C. & Leo, A. (1987). Log P database [Dataset]. Pomona College Medicinal Chemistry Project.

Consider the following illustrative entries.
{"compound": "CNC(=O)NCCSCc1nc[nH]c1C", "observed": -0.06}
{"compound": "OCCCCCl", "observed": 0.85}
{"compound": "CCCOP(=O)(OCCC)OCCC", "observed": 1.87}

compound CN(C)c1ccc2c(c1)C(=O)OC2(C)C , logP observed: 2.42

compound CC(=O)Oc1ccccc1I , logP observed: 2.55

###

# assay.explanation: method code SF, from Hansch, C. & Leo, A. (1987). Log P database [Dataset]. Pomona College Medicinal Chemistry Project.
Please enter Criterion met where logP is greater than or equal to 1, and Criterion not met where it is lower.

{"compound": "CC(=O)c1cccc(OC(=O)N(C)C)c1", "class.assignment": "Criterion met"}
{"compound": "CCC1(c2ccccc2)NC(=O)NC1=O (centres undefined)", "class.assignment": "Criterion met"}
{"compound": "C=CC(N)=O", "class.assignment": "Criterion not met"}

Prompt: API: above_or_equal(metric=logP, cutoff=1) for item COC(=O)c1cccc(O)c1
Completion: Criterion met

Prompt: API: above_or_equal(metric=logP, cutoff=1) for item CC(C)(O)C(F)(F)F
Completion: Criterion met

Prompt: API: above_or_equal(metric=logP, cutoff=1) for item CCOC(=O)CC(=O)C=Cc1cccc(C)c1
Completion: Criterion met

Prompt: API: above_or_equal(metric=logP, cutoff=1) for item CN(C)C#N
Completion: Criterion not met

Prompt: API: above_or_equal(metric=logP, cutoff=1) for item NS(=O)(=O)NCCc1ccccc1
Completion: Criterion not met

These data points were gathered from the SangsterLogP compilation.
